# Species on record: Rattus norvegicus
# EXPERIMENTAL_PROTOCOL: In vitro growth hormone release in rat pituitary cells
# Assay type: functional
# ASSAY_SETUP: Pituitary gland cell, read-out: ED50 (the source's name)
pEC50: −log10 of the molar value.
READOUT_LABEL: pEC50

{"COMPOUND": "CC(C)(N)CCSC1CCc2ccccc2N(Cc2ccc(-c3ccccc3-c3nn[nH]n3)cc2)C1=O (configuration not stated)", "OBSERVED_MEASUREMENT": 5.22}
{"COMPOUND": "C[C@H](O)CNC(C)(C)CNC(=O)N[C@@H]1CCc2ccccc2N(Cc2ccc(-c3ccccc3-c3nn[nH]n3)cc2)C1=O", "OBSERVED_MEASUREMENT": 5.60}
{"COMPOUND": "CC(C)(N)C(=O)N[C@@H]1CCc2ccccc2N(Cc2ccc(-c3ccccc3-c3nn[nH]n3)cc2)C1=O", "OBSERVED_MEASUREMENT": 7.52}
{"COMPOUND": "C[C@@H](O)CNC(C)(C)CC(=O)N[C@@H]1CCc2ccccc2N(Cc2ccc(-c3ccccc3-c3nn[nH]n3)cc2)C1=O", "OBSERVED_MEASUREMENT": 8.52}
{"COMPOUND": "CC(C)(N)CCCSC1CCc2ccccc2N(Cc2ccc(-c3ccccc3-c3nn[nH]n3)cc2)C1=O (configuration not stated)", "OBSERVED_MEASUREMENT": 5.15}
{"COMPOUND": "CC(C)(N)CC(=O)NC1CCc2ccccc2N(Cc2ccc(-c3ccccc3-c3nn[nH]n3)cc2)C1=O (configuration not stated)", "OBSERVED_MEASUREMENT": 6.92}
{"COMPOUND": "CN(C(=O)CC(C)(C)N)[C@@H]1CCc2ccccc2N(Cc2ccc(-c3ccccc3-c3nn[nH]n3)cc2)C1=O", "OBSERVED_MEASUREMENT": 5.15}
{"COMPOUND": "CC(C)(N)CNC1CCc2ccccc2N(Cc2ccc(-c3ccccc3-c3nn[nH]n3)cc2)C1=O (configuration not stated)", "OBSERVED_MEASUREMENT": 6.00}
{"COMPOUND": "CC(C)(N)CC(=O)N[C@@H]1CCc2ccccc2N(Cc2ccc(-c3ccccc3-c3nn[nH]n3)cc2)C1=O", "OBSERVED_MEASUREMENT": 7.22}
{"COMPOUND": "CC(C)(N)CCC(=O)N[C@@H]1CCc2ccccc2N(Cc2ccc(-c3ccccc3-c3nn[nH]n3)cc2)C1=O", "OBSERVED_MEASUREMENT": 5.52}
{"COMPOUND": "C[C@H](O)CNC(C)(C)CC(=O)N[C@@H]1CCc2ccccc2N(Cc2ccc(-c3ccccc3-c3nn[nH]n3)cc2)C1=O", "OBSERVED_MEASUREMENT": 8.15}
{"COMPOUND": "CC(C)(N)CNC(=O)N[C@@H]1CCc2ccccc2N(Cc2ccc(-c3ccccc3-c3nn[nH]n3)cc2)C1=O", "OBSERVED_MEASUREMENT": 7.00}
